test system: Staphylococcus aureus MW2 delta-mecA (mecA-); assay: IC50 (growth, competition assay); conditions: fluorescent label: DsRed; cefoxitin: subinhibitory
Structures can show the parent of a compound that is named as a salt.
Reported IC50 by item:

Example entries and their recorded answers appear below.
compound	tgt	result
CCN(CC)CCOc1ccc(C(=C(Cl)c2ccccc2)c2ccccc2)cc1 [CLOMID]	Staphylococcus aureus MW2 delta-mecA (mecA-)	15.5 µM
O=C(CCCCCN1CCN(c2ccccc2-c2ccccc2)CC1)NC1CCCc2ccccc21 (configuration not stated) [LP 12 hydrochloride hydrate]	Staphylococcus aureus MW2 delta-mecA (mecA-)	< 9.85 µM
Cc1ccc(C(=O)N(CCCN)[C@@H](c2oc3cc(Cl)ccc3c(=O)c2Cc2ccccc2)C(C)C)cc1	Staphylococcus aureus MW2 delta-mecA (mecA-)	5.93 µM
COC(=O)C1=C(C)NC(C)=C(C(=O)OC)C1c1cccc(NC(=O)NCCCN2CCC(c3cccc(OC)c3)CC2)c1	Staphylococcus aureus MW2 delta-mecA (mecA-)	18.2 µM
N#CC(c1ccc(Cl)cc1)c1c(Cl)cc(-n2ncc(=O)[nH]c2=O)cc1Cl (configuration not stated)	Staphylococcus aureus MW2 delta-mecA (mecA-)	< 9.85 µM
OCCN1CCN(CCCN2c3ccccc3Sc3ccc(Cl)cc32)CC1 [Perphenazine]	Staphylococcus aureus MW2 delta-mecA (mecA-)	27.1 µM
N=C(NCCCCCCNC(=N)NC(=N)Nc1ccc(Cl)cc1)NC(=N)Nc1ccc(Cl)cc1	Staphylococcus aureus MW2 delta-mecA (mecA-)	< 9.85 µM
CCn1cc(C(=O)O)c(=O)c2cc(F)c(N3CCNCC3)cc21	Staphylococcus aureus MW2 delta-mecA (mecA-)	< 0.498 µM
O=C1c2ccccc2-c2nc3nonc3nc21	Staphylococcus aureus MW2 delta-mecA (mecA-)	20.4 µM
N[C@@H](Cc1cc(I)c(Oc2ccc(O)c(I)c2)c(I)c1)C(=O)O	Staphylococcus aureus MW2 delta-mecA (mecA-)	14 µM

The compound O=c1c(O)c(-c2ccc(O)c(O)c2)oc2cc(O)cc(O)c12 [Quercetin dihydrate] showed IC50 equal to 18.4 µM

The compound Cc1ccc(S(=O)(=O)N[C@@H](Cc2ccccc2)C(=O)CCl)cc1 showed IC50 equal to < 9.85 µM

The compound CCCCCCNC(=O)n1cc(F)c(=O)[nH]c1=O showed IC50 equal to < 9.85 µM

The compound CCOC(=O)C1=C(C)NC(C)=C(C(=O)OC)C1c1cccc(Cl)c1Cl (configuration not stated) [Felodipine (Plendil)] showed IC50 equal to 7.13 µM

The compound N[C@@H](Cc1cc(I)c(Oc2cc(I)c(O)c(I)c2)c(I)c1)C(=O)O showed IC50 equal to < 9.85 µM

The compound CN(C)[C@@H]1C(O)=C(C(N)=O)C(=O)[C@@]2(O)C(O)=C3C(=O)c4c(O)cccc4[C@@](C)(O)[C@H]3[C@H](O)[C@@H]12 showed IC50 equal to < 9.85 µM

The compound COc1c(N2C[C@@H]3CCCN[C@@H]3C2)c(F)cc2c(=O)c(C(=O)O)cn(C3CC3)c12 [Moxifloxacin hydrochloride] showed IC50 equal to < 0.498 µM

The compound CCOc1nc2cccc(C(=O)OC(C)OC(=O)OC3CCCCC3)c2n1Cc1ccc(-c2ccccc2-c2nn[nH]n2)cc1 (configuration not stated) showed IC50 equal to < 9.85 µM

The compound COc1cc(/C=C/C(=O)CC(=O)/C=C/c2ccc(O)c(OC)c2)ccc1O [Curcumin] showed IC50 equal to 4.13 µM

The compound COc1c(N2C[C@@H]3CCCN[C@@H]3C2)c(F)cc2c(=O)c(C(=O)O)cn(C3CC3)c12 [AVELOX] showed IC50 equal to < 9.85 µM

The compound C=C(CC)C(=O)c1ccc(OCC(=O)O)c(Cl)c1Cl showed IC50 equal to < 9.85 µM

The compound C[C@@H](O[C@H]1OCCN(Cc2nn(P(=O)(O)O)c(=O)[nH]2)[C@H]1c1ccc(F)cc1)c1cc(C(F)(F)F)cc(C(F)(F)F)c1 [Fosaprepitant dimeglumine] showed IC50 equal to 17.2 µM

The compound Cc1nnc(SCC2=C(C(=O)O)N3C(=O)[C@@H](NC(=O)Cn4cnnn4)[C@H]3SC2)s1 [ANCEF] showed IC50 equal to < 9.85 µM

The compound CN1CCN(CCCN2c3ccccc3Sc3ccc(C(F)(F)F)cc32)CC1 [STELAZINE] showed IC50 equal to 18.1 µM

The compound CN1CCN(c2c(F)cc3c(=O)c(C(=O)O)cn4c3c2SCC4)CC1 showed IC50 equal to < 9.85 µM

The compound C[C@H]1COc2c(N3CCN(C)CC3)c(F)cc3c(=O)c(C(=O)O)cn1c23 [Levofloxacin (Levaquin)] showed IC50 equal to < 0.498 µM

The compound CC1(C)S[C@@H]2[C@H](NC(=O)[C@H](NC(=O)N3CCNC3=O)c3ccccc3)C(=O)N2[C@H]1C(=O)O [Azlocillin sodium salt] showed IC50 equal to < 9.85 µM

The compound N[C@@H](C(=O)N[C@@H]1C(=O)N2C(C(=O)O)=C(Cl)CS[C@H]12)c1ccccc1 [Cefaclor] showed IC50 equal to < 9.85 µM

The compound N[C@@H]1[C@H]2CN(c3nc4c(cc3F)c(=O)c(C(=O)O)cn4-c3ccc(F)cc3F)C[C@@H]12 [Trovafloxacin mesylate] showed IC50 equal to < 9.85 µM
